Target Or System: T1, cynomolgus soluble urokinase plasminogen activator receptor (suPAR) (cynomolgus, UniProt Q9GK78 23-303, limits assumed)
T1 construct: Column head says only 'cynomologus'; also called cynomolgus suPAR; cynomolgus uPAR
T1 sequence (Q9GK78 23-303 limits assumed): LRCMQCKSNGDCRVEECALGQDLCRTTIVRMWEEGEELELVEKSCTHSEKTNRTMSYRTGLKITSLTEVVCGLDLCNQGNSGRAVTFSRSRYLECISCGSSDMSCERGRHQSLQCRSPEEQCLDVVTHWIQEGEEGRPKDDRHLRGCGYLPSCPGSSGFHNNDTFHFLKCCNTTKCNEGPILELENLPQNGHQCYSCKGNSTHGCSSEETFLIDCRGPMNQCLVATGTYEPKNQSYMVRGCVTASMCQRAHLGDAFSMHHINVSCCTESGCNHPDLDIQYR
Experiment Description: BLI (Octet) off-rate screen of scFv clones
Readout Label: koff

Field request: koff | item: suPAR_DB02_G11 (scFv, V domains shown, scFv clone from phage display) VH: QVQLVQSGAEVKKPGASVKVSCKASGDTFTGYYMHWVRQAPGQGLEWMGWIDHEGGNTIYAQKFQGRVTMTRDTSTSTVYMELSSLRSEDTAVYYCARGYDVDWFVYWGQGTLVTVSS VL: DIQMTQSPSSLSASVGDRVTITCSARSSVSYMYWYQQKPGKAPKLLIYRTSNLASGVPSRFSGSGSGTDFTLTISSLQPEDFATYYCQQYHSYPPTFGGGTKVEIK
0.00013 s⁻¹

Another binder to look at: suPAR_DB02_G07 (scFv, V domains shown, scFv clone from phage display) VH: QVQLVQSGAEVKKPGASVKVSCKASGYTFTSYYMHWVRQAPGQGLEWMGWIDPENGSTIYDQKFQGRVTMTRDTSTSTVYMELSSLRSEDTAVYYCARGYDVDWFVYWGQGTLVTVSS VL: DIQMTQSPSSLSASVGDRVTITCSASQSVSYMYWYQQKPGKAPKLLIYRTSNLASGVPSRFSGSGSGTDFTLTISSLQPEDFATYYCQQYHSYPPTFGGGTKVEIK
0.000286 s⁻¹

Another binder to look at: suPAR_DB02_D06 (scFv, V domains shown, scFv clone from phage display) VH: QVQLVQSGAEVKKPGASVKVSCKASGDTFANYYMHWVRQAPGQGLEWMGWIIPNSGDTNYAQKFQGRVTMTRDTSTSTVYMELSSLRSEDTAVYYCARGYDVDWFVYWGQGTLVTVSS VL: DIQMTQSPSSLSASVGDRVTITCSARSSVSYMYWYQQKPGKAPKLLIYRTSSLQSGVPSRFSGSGSGTDFTLTISSLQPEDFATYYCQQYHSYPPTFGGGTKVEIK
0.00051 s⁻¹

Another binder to look at: suPAR_DB02_F08 (scFv, V domains shown, scFv clone from phage display) VH: QVQLVQSGAEVKKPGASVKVSCKASGYTFTGYYIHWVRQAPGQGLEWMGWIDPENGNTIYAQKFQGRVTMTRDTSTSTVYMELSSLRSEDTAVYYCARGYDVDWFVYWGQGTLVTVSS VL: DIQMTQSPSSLSASVGDRVTITCSASSSISYMYWYQQKPGKAPKLLIYRTSNLASGVPSRFSGSGSGTDFTLTISSLQPEDFATYYCQQYHSYPPTFGGGTKVEIK
2.47e-05 s⁻¹

Another binder to look at: suPAR_DB02_E05 (scFv, V domains shown, scFv clone from phage display) VH: QVQLVQSGAEVKKPGASVKVSCKASGFNIKDYYIHWVRQAPGQGLEWMGWVDPSSGATDYAQKFQGRVTMTRDTSTSTVYMELSSLRSEDTAVYYCARGYDVDWFVYWGQGTLVTVSS VL: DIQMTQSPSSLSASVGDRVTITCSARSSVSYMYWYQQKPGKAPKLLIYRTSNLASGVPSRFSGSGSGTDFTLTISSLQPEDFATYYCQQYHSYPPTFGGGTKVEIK
0.00146 s⁻¹

Another binder to look at: suPAR_DB02_F02 (scFv, V domains shown, scFv clone from phage display) VH: QVQLVQSGAEVKKPGASVKVSCKASGYTFTDYYMHWVRQAPGQGLEWMGWIDPENGNTIYDQKFQGRVTMTRDTSTSTVYMELSSLRSEDTAVYYCARGYDVDWFVYWGQGTLVTVSS VL: DIQMTQSPSSLSASVGDRVTITCSARSSVSYMYWYQQKPGKAPKLLIYRTSNLQSGVPSRFSGSGSGTDFTLTISSLQPEDFATYYCQQYHSYPPTFGGGTKVEIK
0.00048 s⁻¹

Another binder to look at: suPAR_DB02_D12 (scFv, V domains shown, scFv clone from phage display) VH: QVQLVQSGAEVKKPGASVKVSCKASGYTFSNYYMHWVRQAPGQGLEWMGWIDHEGGSTIYAQKFQGRVTMTRDTSTSTVYMELSSLRSEDTAVYYCARGYDVDWFVYWGQGTLVTVSS VL: DIQMTQSPSSLSASVGDRVTITCSARSSVSYMYWYQQKPGKAPKLLIYRTSNLASGVPSRFSGSGSGTDFTLTISSLQPEDFATYYCQQSHSYPPTFGGGTKVEIK
0.0038 s⁻¹

Another binder to look at: suPAR_DB02_F10 (scFv, V domains shown, scFv clone from phage display) VH: QVQLVQSGAEVKKPGASVKVSCKASGYTFTTYYMHWVRQAPGQGLEWMGWIDPEGGNTSYDQKFQGRVTMTRDTSTSTVYMELSSLRSEDTAVYYCARGYDVDWFVYWGQGTLVTVSS VL: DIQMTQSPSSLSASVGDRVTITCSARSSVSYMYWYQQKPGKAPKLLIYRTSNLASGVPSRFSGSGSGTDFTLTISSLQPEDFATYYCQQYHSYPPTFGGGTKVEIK
0.000375 s⁻¹

Another binder to look at: suPAR_DB02_D08 (scFv, V domains shown, scFv clone from phage display) VH: QVQLVQSGAEVKKPGASVKVSCKASGYTFTNYYMHWVRQAPGQGLEWMGWIDHENGNTIYDQKFQGRVTMTRDTSTSTVYMELSSLRSEDTAVYYCARGYDVDWFVYWGQGTLVTVSS VL: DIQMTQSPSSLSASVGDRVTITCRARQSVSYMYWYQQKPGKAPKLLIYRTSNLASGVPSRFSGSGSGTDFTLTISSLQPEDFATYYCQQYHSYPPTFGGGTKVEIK
0.000345 s⁻¹

Another binder to look at: suPAR_DB02_E06 (scFv, V domains shown, scFv clone from phage display) VH: QVQLVQSGAEVKKPGASVKVSCKASGYTFTGYYMHWVRQAPGQGLEWMGWIDPENGNTIYDQKFQGRVTMTRDTSTSTVYMELSSLRSEDTAVYYCARGYDVDWFVYWGQGTLVTVSS VL: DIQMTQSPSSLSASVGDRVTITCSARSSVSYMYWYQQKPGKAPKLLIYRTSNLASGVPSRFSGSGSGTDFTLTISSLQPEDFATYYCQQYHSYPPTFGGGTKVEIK
0.000295 s⁻¹

Values were extracted from patent US20250215104A1.
